// data source = the supplement of paper PMC7125110

B1: glmS ribozyme (parent)
chain: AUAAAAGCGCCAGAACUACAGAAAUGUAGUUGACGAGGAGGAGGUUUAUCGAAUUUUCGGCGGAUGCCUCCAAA

variants of: B1; test: self-cleavage kobs at 10000 uM GlcN6P; higher = faster cleavage; RNA array; conditions: with glucosamine-6-phosphate
Variants at the floor of the assay were thinned out.
quantity_name: self-cleavage kobs at 10000 uM GlcN6P (s⁻¹)
Quick reminder: number only, in s⁻¹, skip the unit.

mutant_label	measured_number
G41A G66U	6.65e-05

// query I am curious: what self-cleavage kobs at 10000 uM GlcN6P value has been reported for A39U U47G ?
// result 0.00439

// query I am curious: what self-cleavage kobs at 10000 uM GlcN6P value has been reported for C67A C68A ?
// result 3.61e-05

// query I am curious: what self-cleavage kobs at 10000 uM GlcN6P value has been reported for A53C C71A ?
// result 0.000613
